Target: UniProt Q9JJL3
Sequence (Q9JJL3 1-689): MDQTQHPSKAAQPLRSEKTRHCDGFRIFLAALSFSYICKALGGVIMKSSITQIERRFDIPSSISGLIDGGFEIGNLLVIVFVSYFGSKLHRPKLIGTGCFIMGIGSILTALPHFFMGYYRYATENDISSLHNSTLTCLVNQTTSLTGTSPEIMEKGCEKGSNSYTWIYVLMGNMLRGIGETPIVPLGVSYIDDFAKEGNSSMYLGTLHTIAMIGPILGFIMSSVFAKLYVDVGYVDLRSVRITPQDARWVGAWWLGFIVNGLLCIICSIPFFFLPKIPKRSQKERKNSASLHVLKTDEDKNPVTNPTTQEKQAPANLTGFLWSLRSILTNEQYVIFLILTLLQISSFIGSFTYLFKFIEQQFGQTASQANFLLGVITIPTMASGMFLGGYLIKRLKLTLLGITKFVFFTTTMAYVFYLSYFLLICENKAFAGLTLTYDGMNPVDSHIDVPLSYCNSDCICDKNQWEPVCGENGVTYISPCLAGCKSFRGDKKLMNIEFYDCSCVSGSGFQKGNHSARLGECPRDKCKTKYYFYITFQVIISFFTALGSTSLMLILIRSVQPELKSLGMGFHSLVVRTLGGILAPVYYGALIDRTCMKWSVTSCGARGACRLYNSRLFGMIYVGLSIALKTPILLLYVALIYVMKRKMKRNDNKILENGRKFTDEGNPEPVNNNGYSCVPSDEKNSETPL
Assay: Untargeted metabolomics of plasma from untreated wild-type and Oatp1b2(−/−) mice
Settings: plasma of untreated wild-type mice; raw area counts rescaled to median = 1
result-type: Mean value WT

Inquiry: Missing value: Mean value WT, UniProt Q9JJL3, entry CC/C=C\C/C=C\C/C=C\CCCCCCCC(=O)O[C@H](COC(=O)CCCCCCC/C=C\C/C=C\CCCCC)COP(=O)([O-])OCC[N+](C)(C)C [1-linoleoyl-2-linolenoyl-GPC (18:2/18:3)] . Fill in?
Reply text: .923

Inquiry: Missing value: Mean value WT, UniProt Q9JJL3, entry C[C@H](CCC(=O)O)[C@H]1CC[C@H]2[C@@H]3CC(=O)[C@@H]4C[C@H](O)CC[C@]4(C)[C@H]3CC[C@]12C [6-oxolithocholate] . Fill in?
Reply text: .678

Inquiry: Missing value: Mean value WT, UniProt Q9JJL3, entry CCCCCCCCCCCCCCCCCCCCCCCC(=O)OC[C@@H](O)COP(=O)([O-])OCC[N+](C)(C)C [1-lignoceroyl-GPC (24:0)] . Fill in?
Reply text: .847
